- subject.of.test: X-box-binding protein 1 (Homo sapiens)
- method.notes: ATG_Xbp1_CIS: Attagene CIS-FACTORIAL HepG2 Assay for human X-box Binding Protein 1 (XBP1) (AID 2282972)
- conditions.used: HepG2 XBP1 cis-element reporter, Attagene multiplex; actives raise or lower the signal
Calls of active or inactive are those of the source. Rule for the calls: active = hit-call score of the fitted dose curve at least 0.9, where 1 is the maximum; inactive = score below 0.9.
The reply should name one outcome from active, inactive

Kindly provide the recorded test outcome for the following molecule: `COC(C)(C)CCC[C@H](C)C/C=C/C(C)=C/C(=O)OC(C)C`
inactive

Kindly provide the recorded test outcome for the following molecule: `Nc1ccc([N+](=O)[O-])cc1N`
inactive

Kindly provide the recorded test outcome for the following molecule: `NNc1ccccc1`
inactive

Kindly provide the recorded test outcome for the following molecule: `O=C(NC(=O)c1c(F)cccc1F)Nc1ccc(Oc2ccc(C(F)(F)F)cc2Cl)cc1F`
inactive

Kindly provide the recorded test outcome for the following molecule: CC(=O)c1cc2c(cc1C)C(C)(C)C(C)CC2(C)C (stereo unspecified)
active

Kindly provide the recorded test outcome for the following molecule: C=CC(=O)OCC(CC)CCCC (stereo unspecified)
inactive

Kindly provide the recorded test outcome for the following molecule: `[CH3][Sn]([Cl])([Cl])[Cl]`
inactive

Kindly provide the recorded test outcome for the following molecule: `COCC(=O)N(c1c(C)cccc1C)N1CCOC1=O`
inactive

Kindly provide the recorded test outcome for the following molecule: `Nc1ccc(Cl)c(Cl)c1`
inactive

Kindly provide the recorded test outcome for the following molecule: `Oc1ccc(Cl)cc1`
inactive

Kindly provide the recorded test outcome for the following molecule: CCOC(=O)C1OC1(C)c1ccccc1 (stereo unspecified)
inactive

Kindly provide the recorded test outcome for the following molecule: `Cc1ccc(C)c2ccccc12`
inactive

Kindly provide the recorded test outcome for the following molecule: `S=c1[nH]c2ccccc2[nH]1`
inactive

Kindly provide the recorded test outcome for the following molecule: `C=COCCCl`
inactive

Kindly provide the recorded test outcome for the following molecule: `Clc1ccc(-c2ccccc2)cc1`
inactive

Kindly provide the recorded test outcome for the following molecule: `CN(C)N`
inactive

====

- method.notes: TOX21_p53_BLA_p2_viability: Viability Assessment in the Tox21 HCT-116 p53 Agonism Beta-lactamase Assay, Phase 2 (AID 2283591);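 note: compound exposure lasted 16 h at 37 °C; actives lower the ATP signal meaning cytotoxicity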
Inconclusive results are not listed. Activity calls are given as the source filed them. How the source made its calls: active means hit-call score of the fitted dose curve at least 0.9, where 1 is the maximum; inconclusive means response in the unintended direction; inactive means score below 0.9.
The reply should name one outcome from Y for active, N for inactive

Kindly provide the recorded test outcome for the following compound: `Cc1cccc(N)c1C`
N

Kindly provide the recorded test outcome for the following compound: CC(C)NCC(O)c1ccc(N)c(C#N)c1 (stereo unspecified)
N

Kindly provide the recorded test outcome for the following compound: `COCCC#N`
N

Kindly provide the recorded test outcome for the following compound: CNC(C)[C@@H]1CC[C@@H](N)[C@@H](O[C@H]2[C@H](O)[C@@H](O[C@H]3OC[C@](C)(O)[C@H](NC)[C@H]3O)[C@H](N)C[C@@H]2N)O1 (stereo partly specified) (tested in a mixture with another compound)
N

Kindly provide the recorded test outcome for the following compound: CC(O)CN1CCN(CC(=O)[O-])CCN(CC(=O)[O-])CCN(CC(=O)[O-])CC1.[Gd+3] (stereo unspecified)
N

Kindly provide the recorded test outcome for the following compound: `[O]=[Cd]`
N

Kindly provide the recorded test outcome for the following compound: `COc1cc(OC)c(OC)cc1C=O`
N

Kindly provide the recorded test outcome for the following compound: c1ccc(C2(c3ccccc3)CC2C2=NCCN2)cc1 (stereo unspecified)
N

Kindly provide the recorded test outcome for the following compound: `C=CC(=C)C`
N

Kindly provide the recorded test outcome for the following compound: `O=S(=O)(c1ccccc1)c1ccccc1`
N

Kindly provide the recorded test outcome for the following compound: `CCN(CC)Cc1nccn1-c1ccc([N+](=O)[O-])cc1C(=O)c1ccccc1Cl`
N

Kindly provide the recorded test outcome for the following compound: `COc1ccc(CN2CCNCC2)c(OC)c1OC`
N

Kindly provide the recorded test outcome for the following compound: `O=NN1CCCCC1`
N

Kindly provide the recorded test outcome for the following compound: `ClC(Cl)(Cl)Cl`
N

Kindly provide the recorded test outcome for the following compound: `COc1ccc(CO)cc1`
N

Kindly provide the recorded test outcome for the following compound: `Nc1ccncc1`
N

Kindly provide the recorded test outcome for the following compound: `CCN(CC)CCOC(=O)C(C)(c1ccccc1)c1ccccc1`
N

Kindly provide the recorded test outcome for the following compound: CC(=O)C1CCOC1=O (stereo unspecified)
N

Kindly provide the recorded test outcome for the following compound: CC(Cc1ccccc1)NCCn1cnc2c1c(=O)n(C)c(=O)n2C (stereo unspecified)
N

Kindly provide the recorded test outcome for the following compound: `CCCCCc1cc(O)c2c(c1)OC(C)(C)c1ccc(C)cc1-2`
Y

Kindly provide the recorded test outcome for the following compound: `CC(=O)C(C)(C)C`
N

Kindly provide the recorded test outcome for the following compound: `Cc1ccc(N(SC(F)(Cl)Cl)S(=O)(=O)N(C)C)cc1`
N

Kindly provide the recorded test outcome for the following compound: `Cc1ncc(C[n+]2csc(CCO)c2C)c(N)n1`
N

Kindly provide the recorded test outcome for the following compound: `CCCC=NO`
N

Kindly provide the recorded test outcome for the following compound: COC(C)(C)CCCC(C)C/C=C/C(C)=C/C(=O)OC(C)C (stereo unspecified)
N

Kindly provide the recorded test outcome for the following compound: CC(Cc1ccccc1)NCc1ccccc1Cl (stereo unspecified)
N

Kindly provide the recorded test outcome for the following compound: `C#CCOC(C(=O)OCCN(C)C)(c1ccccc1)c1ccccc1`
N

Kindly provide the recorded test outcome for the following compound: `CN(C)c1ccc(N)cc1`
N

Kindly provide the recorded test outcome for the following compound: `CC(=O)[O][Sn]([c]1ccccc1)([c]1ccccc1)[c]1ccccc1`
Y

Kindly provide the recorded test outcome for the following compound: `N#Cc1sc2c(=O)c3ccccc3c(=O)c=2sc1C#N`
Y

Kindly provide the recorded test outcome for the following compound: `C=CC(=O)OCCCCOC(=O)C=C`
Y

Kindly provide the recorded test outcome for the following compound: O=C(O)CC(Cl)C(=O)O (stereo unspecified)
N

Kindly provide the recorded test outcome for the following compound: `CCCCCCC#N`
N

Kindly provide the recorded test outcome for the following compound: CN[C@H]1C[C@@H](N)[C@H](O)[C@@H](O[C@@H]2O[C@H](CO)[C@H](O)[C@@H]3OC4(O[C@H]23)O[C@H](C(N)CO)[C@H](O)[C@H](O)C4O)[C@@H]1O (stereo partly specified)
N

Kindly provide the recorded test outcome for the following compound: `COC1=CC(=O)O[C@@H](/C=C/c2ccc3c(c2)OCO3)C1`
N

Kindly provide the recorded test outcome for the following compound: `COc1ccc2c3c1O[C@H]1[C@@H](O)C=C[C@H]4[C@@H](C2)NCC[C@@]341`
N

Kindly provide the recorded test outcome for the following compound: `NCCOS(=O)(=O)O`
N

Kindly provide the recorded test outcome for the following compound: CCCC(Cn1cncn1)c1ccc(Cl)cc1Cl (stereo unspecified)
N

Kindly provide the recorded test outcome for the following compound: `O=C(Cl)CCl`
N

Kindly provide the recorded test outcome for the following compound: `NCCCNCCCN`
N

Kindly provide the recorded test outcome for the following compound: `CN1C[C@H](C(=O)N[C@]2(C)O[C@@]3(O)[C@@H]4CCCN4C(=O)[C@H](Cc4ccccc4)N3C2=O)C=C2c3cccc4[nH]cc(c34)C[C@H]21`
N

Kindly provide the recorded test outcome for the following compound: c1ccc(OCC2CO2)cc1 (stereo unspecified)
N

Kindly provide the recorded test outcome for the following compound: `Cc1nnc2n1-c1ccc(Cl)cc1C(c1ccccc1)=NC2`
N

Kindly provide the recorded test outcome for the following compound: `c1ccc2c(c1)CCCC2`
N

Kindly provide the recorded test outcome for the following compound: `C[C@H]1[C@@H]2Cc3ccc(O)cc3[C@@]1(C)CCN2C`
N

Kindly provide the recorded test outcome for the following compound: O=C(O)C(Cl)Br (stereo unspecified)
N

====

- Read-out: Interleukin 17F (IL17F), IL17F (gene 112744)
- method.notes: BSK_BT_xIL17F: BioMAP Diversity Plus: BT Assay for Interleukin 17F (IL17F) Biomarker Activity (AID 2284243)
- conditions.used: primary human B cells with PBMC
Calls of active or inactive are those of the source. The calls were made as follows: active = hit-call score of the fitted dose curve at least 0.9, where 1 is the maximum; inactive = score below 0.9.
The reply should name one outcome from active, inactive

Kindly provide the recorded test outcome for the following molecule: `CCCCCCCCCCCC#N`
inactive

Kindly provide the recorded test outcome for the following molecule: `COCC(=O)N(c1c(C)cccc1C)N1CCOC1=O`
inactive

Kindly provide the recorded test outcome for the following molecule: `O=S(=O)(c1ccccc1)c1ccccc1`
inactive

Kindly provide the recorded test outcome for the following molecule: O=P1(NCCCl)OCCCN1CCCl (stereo not drawn)
inactive

Kindly provide the recorded test outcome for the following molecule: `C=CCN(CC=C)C(=O)C(Cl)Cl`
inactive

Kindly provide the recorded test outcome for the following molecule: `O=[N+]([O-])C=Cc1ccccc1`
active

Kindly provide the recorded test outcome for the following molecule: C=CC(=O)OCC(CC)CCCC (stereo not drawn)
inactive

Kindly provide the recorded test outcome for the following molecule: `COC(C)(C)CCC[C@H](C)C/C=C/C(C)=C/C(=O)OC(C)C`
active

Kindly provide the recorded test outcome for the following molecule: Cc1ccc(OP(=O)(Oc2ccc(C)cc2)Oc2ccc(C)cc2)cc1 (tested in a mixture with another compound)
active

Kindly provide the recorded test outcome for the following molecule: `CC(C)CCCCCCCOP(=O)(Oc1ccccc1)Oc1ccccc1`
active

Kindly provide the recorded test outcome for the following molecule: CC(C)(C)C(O)C(Oc1ccc(-c2ccccc2)cc1)n1cncn1 (stereo not drawn)
inactive

Kindly provide the recorded test outcome for the following molecule: `O=c1c2ccccc2c(=O)c2c1cc(Cl)c1[nH]c3c([nH]c12)c(Cl)cc1c(=O)c2ccccc2c(=O)c13`
inactive

Kindly provide the recorded test outcome for the following molecule: `O=c1[nH]c(Cl)c(Cl)cc1Cl`
inactive

Kindly provide the recorded test outcome for the following molecule: `CC(C)(c1cc(Cl)c(O)c(Cl)c1)c1cc(Cl)c(O)c(Cl)c1`
inactive

Kindly provide the recorded test outcome for the following molecule: `CCc1cc(C)cc(CC)c1-c1c(OC(=O)C(C)(C)C)n2n(c1=O)CCOCC2`
inactive

Kindly provide the recorded test outcome for the following molecule: `Clc1ccc(-c2ccccc2)cc1`
inactive

Kindly provide the recorded test outcome for the following molecule: `O=C1C=CC(=O)C=C1`
active

Kindly provide the recorded test outcome for the following molecule: `CC(=O)/C=C/c1ccccc1`
active
